B1: library; a variant is named by its letters at N, in order (parent)
chain: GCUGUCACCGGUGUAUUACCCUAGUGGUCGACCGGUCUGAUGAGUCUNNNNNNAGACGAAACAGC

variants of: B1; assay: normalized RNA/DNA level with ligand (relative to sTRSVctl = 100) (log10 (% of sTRSVctl)); ligand: hypoxanthine (xanthine aptamer); higher = less ribozyme self-cleavage, higher mRNA level; conditions: ligand concentration (+) RNA-Seq: 5 mM, HEK293T, reporter: mCherry (pCS4076), ligand present: yes
In this section we review reported normalized RNA/DNA level with ligand (log10) values for a set of variants.
# respond with the number and nothing more

// solved cases for normalized RNA/DNA level with ligand (log10) follow
GCUGUCACCGGUGUAUUACCCUAGUGGUCGACCGGUCUGAUGAGUCUAACUGGAGACGAAACAGC [AACUGG] :: 1.79
GCUGUCACCGGUGUAUUACCCUAGUGGUCGACCGGUCUGAUGAGUCUAUUGAAAGACGAAACAGC [AUUGAA] :: 1.91
GCUGUCACCGGUGUAUUACCCUAGUGGUCGACCGGUCUGAUGAGUCUAAGCGGAGACGAAACAGC [AAGCGG] :: 1.65
GCUGUCACCGGUGUAUUACCCUAGUGGUCGACCGGUCUGAUGAGUCUCGCCGGAGACGAAACAGC [CGCCGG] :: 1.91
GCUGUCACCGGUGUAUUACCCUAGUGGUCGACCGGUCUGAUGAGUCUGGGAGUAGACGAAACAGC [GGGAGU] :: 1.92
GCUGUCACCGGUGUAUUACCCUAGUGGUCGACCGGUCUGAUGAGUCUGGUACUAGACGAAACAGC [GGUACU] :: 1.97

query: Need normalized RNA/DNA level with ligand (log10), item GCUGUCACCGGUGUAUUACCCUAGUGGUCGACCGGUCUGAUGAGUCUGCACGAAGACGAAACAGC [GCACGA]
result: 1.93

query: Field entry: GCUGUCACCGGUGUAUUACCCUAGUGGUCGACCGGUCUGAUGAGUCUGAUAGAAGACGAAACAGC [GAUAGA]
result: 1.89
